tgt: T1, NEMO (NF-κB essential modulator), tag-free, biotinylated (human, UniProt Q9Y6K9 1-419, biotin (in vitro biotinylation kit, biotin:NEMO molar ratio 9:1))
T1 construct: NEMO, NF-κB essential modulator, human, 48 kDa; also called biotinylated NEMO; biotin-NEMO; source: E. coli BL21(DE3), purified (glutathione sepharose), GST removed with thrombin, biotinylated in vitro
method-summary: peptide or protein array; Invitrogen Protoarray v4.0, about 8,400 human proteins spotted on nitrocellulose-coated glass slides; 10 µg biotinylated tag-free NEMO in 120 µl probing buffer (PBS, 0.5 mM DTT, 5 mM MgCl2, 5% glycerol, 0.05% Triton X-100), 4°C, 1.5 h; bound NEMO detected with labelled streptavidin; hits Z-score > 3, hits of the biotin-GST control array subtracted
settings: both partners purified
quantity-kind: binding result

>>> reading("Centrin EF-hand protein 3 (natural protein, human, UniProt O15182 1-167, looked up, Centrin EF-hand protein 3, human; also called CETN3; source: insect cell/baculovirus, purified, spotted (Invitrogen Protoarray v4.0)) MSLALRSELVVDKTKRKKRRELSEEQKQEIKDAFELFDTDKDEAIDYHELKVAMRALGFDVKKADVLKILKDYDREATGKITFEDFNEVVTDWILERDPHEEILKAFKLFDDDDSGKISLRNLRRVARELGENMSDEELRAMIEEFDKDGDGEINQEEFIAIMTGDI")
"binds"
>>> reading("Chromosome 9 open reading frame 32 (natural protein, human, UniProt Q9BV86 1-223, looked up, Chromosome 9 open reading frame 32, human; also called C9ORF32; source: insect cell/baculovirus, purified, spotted (Invitrogen Protoarray v4.0)) MTSEVIEDEKQFYSKAKTYWKQIPPTVDGMLGGYGHISSIDINSSRKFLQRFLREGPNKTGTSCALDCGAGIGRITKRLLLPLFREVDMVDITEDFLVQAKTYLGEEGKRVRNYFCCGLQDFTPEPDSYDVIWIQWVIGHLTDQHLAEFLRRCKGSLRPNGIIVIKDNMAQEGVILDDVDSSVCRDLDVVRRIICSAGLSLLAEERQENLPDEIYHVYSFALR")
"binds"
>>> reading("Cyclic AMP phosphoprotein, 19 kDa (natural protein, human, UniProt P56211-1 1-112, looked up, Cyclic AMP phosphoprotein, 19 kDa, human; also called ARPP-19; source: insect cell/baculovirus, purified, spotted (Invitrogen Protoarray v4.0)) MSAEVPEAASAEEQKEMEDKVTSPEKAEEAKLKARYPHLGQKPGGSDFLRKRLQKGQKYFDSGDYNMAKAKMKNKQLPTAAPDKTEVTGDHIPTPQDLPQRKPSLVASKLAG")
"binds"

Measured values drawn from paper PMC2808332 for this set.
